molecular target: human muscle glycogen phosphorylase a (HMGPa) (Homo sapiens, UniProt P11217); experiment: GPa activity assay, reverse direction (release of inorganic phosphate from glucose-1-phosphate), HMGPa; details: recombinant human muscle GPa, glucose present
Sequence (P11217 whole entry): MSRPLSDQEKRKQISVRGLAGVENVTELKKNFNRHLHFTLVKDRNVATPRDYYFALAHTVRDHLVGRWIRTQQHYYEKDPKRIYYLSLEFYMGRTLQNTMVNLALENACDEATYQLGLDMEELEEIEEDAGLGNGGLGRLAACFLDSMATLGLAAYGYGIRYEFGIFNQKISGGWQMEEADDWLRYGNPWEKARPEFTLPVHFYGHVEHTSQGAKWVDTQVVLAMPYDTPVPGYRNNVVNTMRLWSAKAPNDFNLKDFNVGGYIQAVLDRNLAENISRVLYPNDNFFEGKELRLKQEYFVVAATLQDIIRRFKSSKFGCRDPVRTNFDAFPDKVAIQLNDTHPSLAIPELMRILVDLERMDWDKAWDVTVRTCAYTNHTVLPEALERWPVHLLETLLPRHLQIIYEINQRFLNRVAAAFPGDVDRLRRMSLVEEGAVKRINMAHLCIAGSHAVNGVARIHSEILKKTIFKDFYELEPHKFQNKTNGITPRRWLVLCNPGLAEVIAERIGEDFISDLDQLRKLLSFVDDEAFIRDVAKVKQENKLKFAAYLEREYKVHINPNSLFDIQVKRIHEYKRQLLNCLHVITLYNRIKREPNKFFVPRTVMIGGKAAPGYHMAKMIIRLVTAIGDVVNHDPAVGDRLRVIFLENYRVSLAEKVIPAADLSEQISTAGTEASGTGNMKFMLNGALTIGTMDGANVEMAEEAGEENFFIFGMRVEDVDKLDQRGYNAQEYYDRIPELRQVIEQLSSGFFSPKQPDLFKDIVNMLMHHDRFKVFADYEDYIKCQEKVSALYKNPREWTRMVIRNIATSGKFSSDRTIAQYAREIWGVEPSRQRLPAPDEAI
readoutName: IC50 (nM)

// known answers, use as guide
- compound: "O=C(N[C@@H](Cc1ccccc1)C(=O)N1CC(=NO)C1)c1cc2cc(Cl)ccc2[nH]1"
  IC50 (nM): 84
- compound: "O=C(N[C@@H](Cc1ccccc1)[C@@H](O)C(=O)N1CC[C@H](O)C1)c1cc2cc(Cl)ccc2[nH]1"
  IC50 (nM): 96
- compound: "O=C(N[C@@H](Cc1ccccc1)C(=O)N1C[C@@H](O)[C@@H](O)C1)c1cc2cc(Cl)ccc2[nH]1"
  IC50 (nM): 97
- compound: "O=C(N[C@@H](Cc1ccccc1)C(=O)N1C[C@H](O)[C@@H](O)C1)c1cc2cc(Cl)ccc2[nH]1"
  IC50 (nM): 71
- compound: "O=C(N[C@@H](Cc1ccccc1)[C@@H](O)C(=O)N1C[C@@H](O)[C@@H](O)C1)c1cc2cc(Cl)ccc2[nH]1"
  IC50 (nM): 385
- compound: "O=C(NC(Cc1ccccc1)C(=O)N1CCC(O)C1)c1cc2cc(Cl)ccc2[nH]1 (stereo not shown)"
  IC50 (nM): 85
- compound: "O=C(N[C@@H](Cc1ccccc1)C(=O)N1CC(O)C1)c1cc2cc(Cl)ccc2[nH]1"
  IC50 (nM): 121

a. O=C(N[C@@H](Cc1ccccc1)[C@@H](O)C(=O)N1C[C@H](O)[C@@H](O)C1)c1cc2cc(Cl)ccc2[nH]1
b. O=C(NCC(=O)N1CCSC1)c1cc2cc(Cl)ccc2[nH]1
c. O=C(N[C@@H](Cc1ccccc1)[C@@H](O)C(=O)N1CC(O)C1)c1cc2cc(Cl)ccc2[nH]1
Hello, I need these entries ordered by IC50, highest reading first. Thanks! Quick reminder: the answer is the labels in the order asked.
c, b, a
